Cited source: paper PMC5161367

Test details: Cytotoxicity, CellTiter-Glo, HeLa cells
Type: cell-based
Measurement conditions: human, CC50 vs VEGF ELISA IC50, read-out: selective index (CC50/IC50)
Quantity: selectivity ratio

Form field: reported selectivity ratio of Brc1ccc2[nH]c3c(c2c1)CCCC3n1cccc1 (stereo not shown) > 200

====

System: Cyp3A4 (Homo sapiens)
Sequence (P08684 whole entry): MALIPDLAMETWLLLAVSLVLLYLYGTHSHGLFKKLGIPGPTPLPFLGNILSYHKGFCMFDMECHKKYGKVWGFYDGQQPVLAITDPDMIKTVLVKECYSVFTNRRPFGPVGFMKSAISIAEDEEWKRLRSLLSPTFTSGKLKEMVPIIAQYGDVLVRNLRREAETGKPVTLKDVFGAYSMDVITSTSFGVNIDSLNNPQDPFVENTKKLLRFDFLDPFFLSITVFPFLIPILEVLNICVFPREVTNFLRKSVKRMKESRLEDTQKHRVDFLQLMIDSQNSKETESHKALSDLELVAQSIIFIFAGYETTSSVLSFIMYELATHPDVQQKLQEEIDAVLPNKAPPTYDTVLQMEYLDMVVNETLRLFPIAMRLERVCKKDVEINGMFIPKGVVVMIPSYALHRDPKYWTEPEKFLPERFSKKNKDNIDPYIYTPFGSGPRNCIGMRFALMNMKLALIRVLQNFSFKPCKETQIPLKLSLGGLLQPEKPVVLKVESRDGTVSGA
Quantity: IC50 (µM)
Respond numerically; units are µM and should not be typed.

Please state recorded IC50 (tested on Cyp3A4 (Homo sapiens)) of COc1ccc(C2c3[nH]c4ccc(Br)cc4c3CC3C(=O)N(C4CCCCC4)C(=S)N32)cc1.O=C(O)C(F)(F)F (stereo not shown) 3.7

====

Test details: Cytotoxicity, CellTiter-Glo, HeLa cells
Assay type: cell-based
Measurement conditions: human, 48 hr
Quantity: CC50 at 48 hr (nM)
Form entry: value (nM) — number only.

Can you look up the measured CC50 at 48 hr of COc1ccc(C2c3[nH]c4ccc(Br)cc4c3CC3C(=O)N(C4CCCCC4)C(=S)N32)cc1.O=C(O)C(F)(F)F (stereo not shown) [PTC-510] for me? 200

====

System: Cyp2C19 (Homo sapiens)
Sequence (P33261 whole entry): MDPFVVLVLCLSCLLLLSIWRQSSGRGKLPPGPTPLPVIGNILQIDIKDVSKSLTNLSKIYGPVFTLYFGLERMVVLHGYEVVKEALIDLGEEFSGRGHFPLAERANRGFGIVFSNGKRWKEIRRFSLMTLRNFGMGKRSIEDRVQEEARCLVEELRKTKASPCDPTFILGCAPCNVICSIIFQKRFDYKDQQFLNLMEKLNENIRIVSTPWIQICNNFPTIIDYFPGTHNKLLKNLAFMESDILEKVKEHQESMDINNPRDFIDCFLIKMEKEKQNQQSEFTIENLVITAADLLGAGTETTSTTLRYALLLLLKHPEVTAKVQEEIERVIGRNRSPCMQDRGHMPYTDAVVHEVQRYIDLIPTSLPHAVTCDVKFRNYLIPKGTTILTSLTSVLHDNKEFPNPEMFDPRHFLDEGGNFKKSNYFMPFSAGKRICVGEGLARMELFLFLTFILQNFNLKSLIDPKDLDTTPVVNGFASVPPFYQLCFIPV
pIC50: −log10 of the molar value.
Quantity: pIC50

Could you tell me which pIC50 is on file for COc1ccc(C2c3[nH]c4ccc(Br)cc4c3CC3C(=O)N(C4CCCCC4)C(=S)N32)cc1.O=C(O)C(F)(F)F (stereo not shown) ? < 5.30

====

System: Cyp1A2 (Homo sapiens, UniProt P05177)
Sequence (P05177 whole entry): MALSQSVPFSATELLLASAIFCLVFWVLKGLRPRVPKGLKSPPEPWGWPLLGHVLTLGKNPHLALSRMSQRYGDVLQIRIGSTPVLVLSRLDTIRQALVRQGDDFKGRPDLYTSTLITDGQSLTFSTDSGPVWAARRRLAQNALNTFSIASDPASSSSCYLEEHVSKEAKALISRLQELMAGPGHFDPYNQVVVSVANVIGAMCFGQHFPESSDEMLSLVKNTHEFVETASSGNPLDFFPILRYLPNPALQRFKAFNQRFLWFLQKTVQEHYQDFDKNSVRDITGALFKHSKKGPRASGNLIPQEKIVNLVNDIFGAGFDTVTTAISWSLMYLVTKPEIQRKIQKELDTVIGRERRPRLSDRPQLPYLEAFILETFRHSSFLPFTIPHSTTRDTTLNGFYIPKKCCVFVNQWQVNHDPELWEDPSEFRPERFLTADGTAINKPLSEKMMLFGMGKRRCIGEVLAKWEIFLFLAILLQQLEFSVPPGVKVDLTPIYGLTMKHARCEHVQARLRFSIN
Test details: p450 inhibition Cyp1A2
Type: in vitro ADME
pIC50: −log10 of the molar value.
Quantity: pIC50

So what's the measured pIC50 for this one? COc1ccc(C2c3[nH]c4ccc(Br)cc4c3CC3C(=O)N(C4CCCCC4)C(=S)N32)cc1.O=C(O)C(F)(F)F (stereo not shown) < 5.30

====

Tested on: TNFα
Test details: TNFα ELISA in CEM cells with IL-1 induction
Format: cell-based
Measurement conditions: Homo sapiens, CCRF-CEM; CEM cells (T lymphoblasts) with 1 μg/mL IL-1 induction, 48 hours; read-out: ELISA EC50, TNFa
Exercise: state measured EC50 for each of the compounds provided.

Please look up its EC50: COc1ccc([C@@H]2c3[nH]c4ccccc4c3C[C@@H]3C(=O)N(C4CCCCC4)C(=S)N23)cc1 [PTC-031] > 30 µM

Try Brc1ccc2[nH]c3c(c2c1)CCCC3n1cccc1 (stereo not drawn) [PTC-858] next. > 30 µM

What do you have for COc1ccc(C[C@H](N)C(=O)N[C@H]2[C@@H](O)[C@H](n3cnc4c(N(C)C)ncnc43)O[C@@H]2CO)cc1 [Puromycin, puromycin, reference compound] ? 2.4 µM

====

Please provide measured CC50 at 72 hours for the entries that follow.
Test details: Cytotoxicity, CellTiter-Glo, HeLa cells
Format: cell-based
Measurement conditions: human, 72 hours, CellTiter-Glo
Field format: number, assumed nM, no unit text.

Quick check: CC50 at 72 hours of Brc1ccc2[nH]c3c(c2c1)CCCC3n1cccc1 (stereo not drawn) ? 1700

Consider next the compound COc1ccc(C[C@H](N)C(=O)N[C@H]2[C@@H](O)[C@H](n3cnc4c(N(C)C)ncnc43)O[C@@H]2CO)cc1 [Puromycin, puromycin, reference compound] in the same way. 400

====

Test details: Cytotoxicity, CellTiter-Glo, PBMC
Assay type: cell-based
Measurement conditions: human, peripheral blood mononuclear cells (PBMC); read-out: PBMC cytoxtoxicity CC50
Quantity: CC50 at 3 days

Fill in: CC50 at 3 days of COc1ccc(C2c3[nH]c4ccc(Br)cc4c3CC3C(=O)N(C4CCCCC4)C(=S)N32)cc1.O=C(O)C(F)(F)F (stereo not shown) is ___ > 30 µM

====

Test details: Pharmacokinetics in the rat
Type: in vivo
Measurement conditions: in vivo, po, DMSO/PEG
Quantity: bioavailability (%)
Supply the numeric figure in %, leaving out any unit text.

bioavailability for COc1ccc(C2c3[nH]c4ccc(Br)cc4c3CC3C(=O)N(C4CCCCC4)C(=S)N32)cc1.O=C(O)C(F)(F)F (stereo not shown) ? 50
